- Target system: AP-2 complex subunit beta (Homo sapiens) (UniProt P63010)
- Sequence (P63010 whole entry, looked up, one chain of several): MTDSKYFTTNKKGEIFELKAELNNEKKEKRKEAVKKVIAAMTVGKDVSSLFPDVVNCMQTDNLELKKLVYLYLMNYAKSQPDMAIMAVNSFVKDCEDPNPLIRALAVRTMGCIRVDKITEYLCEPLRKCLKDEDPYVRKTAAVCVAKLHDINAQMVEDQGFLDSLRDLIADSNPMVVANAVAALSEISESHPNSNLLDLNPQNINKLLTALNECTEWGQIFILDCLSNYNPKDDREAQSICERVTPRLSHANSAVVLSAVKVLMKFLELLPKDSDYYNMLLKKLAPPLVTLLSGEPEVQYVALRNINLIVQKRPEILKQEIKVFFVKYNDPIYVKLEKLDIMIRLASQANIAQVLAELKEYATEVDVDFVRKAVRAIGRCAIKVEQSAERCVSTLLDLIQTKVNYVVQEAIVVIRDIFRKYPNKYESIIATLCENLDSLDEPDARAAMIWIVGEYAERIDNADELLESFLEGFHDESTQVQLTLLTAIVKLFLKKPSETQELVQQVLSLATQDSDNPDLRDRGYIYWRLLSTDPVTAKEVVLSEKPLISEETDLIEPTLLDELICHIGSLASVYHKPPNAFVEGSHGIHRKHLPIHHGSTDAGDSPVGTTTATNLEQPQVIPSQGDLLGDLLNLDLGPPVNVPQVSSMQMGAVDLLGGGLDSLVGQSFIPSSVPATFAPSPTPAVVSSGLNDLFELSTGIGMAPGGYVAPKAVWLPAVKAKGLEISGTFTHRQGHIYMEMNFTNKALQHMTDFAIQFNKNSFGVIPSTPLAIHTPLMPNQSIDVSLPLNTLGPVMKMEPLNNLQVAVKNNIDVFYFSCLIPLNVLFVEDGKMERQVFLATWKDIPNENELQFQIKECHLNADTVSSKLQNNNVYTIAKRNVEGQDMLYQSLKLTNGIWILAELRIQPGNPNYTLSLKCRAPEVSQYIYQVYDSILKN
- Assay notes: inhibitors of arrestin peptide binding to AP2, pilot screen, biochemical, validation set, GST-AP2 beads, flow cytometry (AID 504541);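 note: AP2 carries R879A mutation and is captured from E. coli lysate; bead-bound FITC arrestin peptide fluorescence measuring arrestin peptide binding to AP2; 0% = DMSO wells and 100% = excess unlabeled arrestin peptide control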
- Particulars: FITC arrestin peptide, at 10 µM, hits give high values, AP2 beta2 appendage fragment, R879A mutant
Items are presented alongside their recorded inhibition.
Expressed in %, but write only the number.

Known inhibition results, listed for orientation:
1. O=C(O)/C=C/c1ccc(O)c(O)c1 | 4.2
2. CC(=O)N(CCC1(C(C)C)CCOC(C)(C)C1)Cc1ccco1 (configuration not stated) | 0.1
3. CC(=O)N=c1sc(S(N)(=O)=O)nn1C | -6.47
4. NCCCC(=O)O | 2.65
5. CCOC(=O)c1cnc2ccc(C(=O)OC)cc2c1Nc1ccc2c(c1)OCCO2 | -8.06

Please indicate inhibition recorded for COC1=CC(=O)CC(C)C12Oc1c(Cl)c(OC)cc(OC)c1C2=O (configuration not stated)
14.5

Please indicate inhibition recorded for CC(C)NC(=O)C1(c2ccccc2)CCOCC1
3.27
